Where these numbers come from: FireProtDB (doi:10.1021/bi00093a001)

B1: Subtilisin-chymotrypsin inhibitor-2A, P01053 (parent)
chain: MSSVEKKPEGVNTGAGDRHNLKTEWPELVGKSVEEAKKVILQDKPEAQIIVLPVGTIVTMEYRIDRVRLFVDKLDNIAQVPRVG

Variants of: B1
MEASUREMENT PARAMETERS: Hordeum vulgare; pH 6.3; 25 °C; GdnHCl; Fluorescence; MES 450 mM; reversible: yes; structure 2CI2; whole UniProt chain shown
unfolding free energy overview
Reply with just the number (in kcal/mol).

Sample answers from the record:
I40V :: 6.63
I77A :: 3.45
I49A :: 4.14

Q: Tell me the measured unfolding free energy of L69A , please.
Ans: 3.98

Q: Tell me the measured unfolding free energy of V39A , please.
Ans: 7.54

Q: Tell me the measured unfolding free energy of V71A , please.
Ans: 6.41

Q: Tell me the measured unfolding free energy of I49V , please.
Ans: 6.8

Q: Tell me the measured unfolding free energy of L28A , please.
Ans: 5.63

Q: Tell me the measured unfolding free energy of I49A I77V , please.
Ans: 3.46

Q: Tell me the measured unfolding free energy of V67A , please.
Ans: 2.57
